# credit: patent US20240182536A1

# key: entry, value: HEK-Blue activity, No BP, DF-1,000,000
Molecular target: T1, IL-18 receptors on HEK-Blue IL-18 reporter cells (UniProt Q13478 19-541; O95256 20-599, limits assumed); also: unit not given here
T1 sequence (looked up) 1: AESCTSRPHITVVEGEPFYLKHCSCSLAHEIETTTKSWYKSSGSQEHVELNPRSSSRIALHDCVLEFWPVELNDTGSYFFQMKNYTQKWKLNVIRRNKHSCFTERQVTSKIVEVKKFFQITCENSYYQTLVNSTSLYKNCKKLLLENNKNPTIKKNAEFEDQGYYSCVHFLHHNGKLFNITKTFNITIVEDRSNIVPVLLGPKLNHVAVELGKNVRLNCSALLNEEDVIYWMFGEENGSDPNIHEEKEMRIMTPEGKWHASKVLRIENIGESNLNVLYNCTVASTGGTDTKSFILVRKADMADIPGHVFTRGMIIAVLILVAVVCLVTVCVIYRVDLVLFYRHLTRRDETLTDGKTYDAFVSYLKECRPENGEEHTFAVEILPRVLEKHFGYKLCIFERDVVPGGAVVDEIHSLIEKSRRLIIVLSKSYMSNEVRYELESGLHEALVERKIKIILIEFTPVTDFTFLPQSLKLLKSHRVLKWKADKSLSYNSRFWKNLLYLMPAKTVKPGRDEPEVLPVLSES
T1 sequence (looked up) 2: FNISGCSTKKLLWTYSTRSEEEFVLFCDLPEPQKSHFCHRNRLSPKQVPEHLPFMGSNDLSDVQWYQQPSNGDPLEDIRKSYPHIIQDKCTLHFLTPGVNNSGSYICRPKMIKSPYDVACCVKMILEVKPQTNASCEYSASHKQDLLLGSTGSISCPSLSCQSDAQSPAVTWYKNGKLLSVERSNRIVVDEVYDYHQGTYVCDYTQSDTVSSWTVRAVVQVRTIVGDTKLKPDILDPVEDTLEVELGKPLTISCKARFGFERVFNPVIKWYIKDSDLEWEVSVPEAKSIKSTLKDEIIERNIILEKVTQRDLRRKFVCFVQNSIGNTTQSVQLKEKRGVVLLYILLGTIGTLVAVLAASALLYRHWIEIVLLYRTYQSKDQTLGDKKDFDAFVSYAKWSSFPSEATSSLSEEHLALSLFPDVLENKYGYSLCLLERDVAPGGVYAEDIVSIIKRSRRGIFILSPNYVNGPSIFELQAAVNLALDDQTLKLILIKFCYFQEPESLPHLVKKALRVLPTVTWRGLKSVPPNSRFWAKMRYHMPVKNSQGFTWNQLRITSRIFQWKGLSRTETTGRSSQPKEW
Assay: cell-based or functional assay
Number only, no unit.

Sample answers from the record:
{"binder": "IL-18 variant K53D, S55N, H109I (ligand) YFGKLESKLSVIRNLNDQVLFIDQGNRPLFEDMTDSDMRDNAPRTIFIISMYDDNQPRGMAVTISVKSEKISTLSSENKIISFKEMNPPDNIKDTKSDIIFFQRSVPGIDNKMQFESSSYEGYFLASEKERDLFKLILKKEDELGDRSIMFTVQNED", "HEK-Blue activity, No BP, DF-1,000,000": 0.09}
{"binder": "IL-18 variant K53L, S55E (ligand) YFGKLESKLSVIRNLNDQVLFIDQGNRPLFEDMTDSDMRDNAPRTIFIISMYLDEQPRGMAVTISVKSEKISTLSSENKIISFKEMNPPDNIKDTKSDIIFFQRSVPGHDNKMQFESSSYEGYFLASEKERDLFKLILKKEDELGDRSIMFTVQNED", "HEK-Blue activity, No BP, DF-1,000,000": 0.09}

Query IL-18 variant K53G, S55I, R104K, P107Y (ligand) YFGKLESKLSVIRNLNDQVLFIDQGNRPLFEDMTDSDMRDNAPRTIFIISMYGDIQPRGMAVTISVKSEKISTLSSENKIISFKEMNPPDNIKDTKSDIIFFQKSVYGHDNKMQFESSSYEGYFLASEKERDLFKLILKKEDELGDRSIMFTVQNED yields HEK-Blue activity, No BP, DF-1,000,000 of 0.09
